test.description: Kinetic solubility
Assay type: physicochemical
test.context: kinetic from dmso stock
Threshold check on solubility kinetic: at or above 100 µM gives 1.0, strictly below gives 0.0.

The following compounds have reported results that may help.
{"chemical.structure": "Cc1cc(Nc2ncc3c(n2)N(C)CN(c2c(Cl)cccc2Cl)C3=O)ccc1N1CCNCC1", "assigned.category": 1.0}
{"chemical.structure": "Cc1cc(Nc2ncc3c(n2)N(C)CN(c2c(Cl)cccc2Cl)C3=O)ccc1C1CCNCC1", "assigned.category": 1.0}

Please check the record CN1CCC(c2ccc(Nc3ncc4c(n3)N(C)CN(c3c(Cl)cccc3Cl)C4=O)cc2)CC1 and state if its solubility kinetic is at or above 100 µM.
1.0

Please check the record CN1CCC(c2ccc(Nc3ncc4c(n3)N(C)CN(c3c(Cl)cccc3Cl)C4=O)cc2CO)CC1 and state if its solubility kinetic is at or above 100 µM.
1.0

Please check the record Cc1cc(Nc2ncc3c(n2)N(C)CN(c2c(Cl)cccc2Cl)C3=O)ccc1C1=CCN(C)CC1 and state if its solubility kinetic is at or above 100 µM.
0.0

Please check the record COc1cc(Nc2ncc3c(n2)N(C)CN(c2c(Cl)cccc2Cl)C3=O)ccc1C1CCN(C)CC1 and state if its solubility kinetic is at or above 100 µM.
0.0

Please check the record Cc1cc(Nc2ncc3c(n2)N(C)CN(c2c(Cl)cccc2Cl)C3=O)ccc1C1CCN(C)CC1 and state if its solubility kinetic is at or above 100 µM.
1.0

Please check the record Cc1cc(Nc2ncc3c(n2)N(C)CN(c2c(C)cccc2Cl)C3=O)ccc1C1CCN(C)CC1 and state if its solubility kinetic is at or above 100 µM.
1.0

# credit: patent US11208413B2
